# Assay Comment: Cmax in human serum at […] followed by regimen of […] for every 12 hrs
# Assay type: ADME, organism-based
# Design: route intravenous

{"Structure Notation": "CN(C)c1cc(NC(=O)CNC(C)(C)C)c(O)c2c1C[C@H]1C[C@H]3[C@H](N(C)C)C(O)=C(C(N)=O)C(=O)[C@@]3(O)C(O)=C1C2=O", "Cmax, ng/mL": 630}
